Would you mind telling me the reported TGI of each entry?
# Test system: T-47D breast
# METHOD_SUMMARY: NCI tumour cell line growth inhibition, 48 h

INSERT INTO assay_data (molecule, result) VALUES
  ('COc1cc([C@@H]2c3cc4c(cc3[C@@H](c3c(O)cc(O)c5c3O[C@H](c3ccc(O)c(O)c3)[C@H](OC(=O)c3cc(O)c(O)c(O)c3)C5)[C@H]3COC(=O)[C@H]23)OCO4)cc(OC)c1OC', '> 100 µM');

// for each molecule below, give its TGI
1. Cc1cc(=O)oc2c3c(ccc12)OC(c1ccc(Br)cc1)CC3=O (stereo unspecified)
2. COc1cc(NCC2COc3c(ccc(OC)c3OC)C2=O)c([N+](=O)[O-])cc1OC (stereo unspecified)
3. Cc1cc(=O)[nH]c(/N=C(\N)Nc2ccc(Cl)cc2)n1
4. COC(OC)C1OC(CO)C(n2cc(F)c(=O)[nH]c2=O)C1O (stereo unspecified)
5. O=C(O)c1cc(O)c2c(c1)C([C@@H]1c3cccc(O)c3C(=O)c3c(O)cc(C(=O)O)cc31)c1cccc(O)c1C2=O (stereo partly specified)

1.18 µM
> 100 µM
> 100 µM
> 100 µM
> 100 µM

====

# System: COLO 205 colon
# METHOD_SUMMARY: NCI tumour cell line growth inhibition, 48 h; in the data active = GI50 below about 0.43 µM; inactive = the rest
Outcome field: choose from active, inactive

Reference set, count: 3
INSERT INTO measurements (compound, target_system, group_label) VALUES
  ('O=C(O)c1cc(Cc2ccc(O)c(C(=O)O)c2)ccc1O (tested in a mixture with another compound)', 'COLO 205 colon', 'inactive'),
  ('CC(=O)[C-](C(C)=O)c1ccccc1.CC(=O)[C-](C(C)=O)c1ccccc1.CC[O-].CC[O-].[Ti+4]', 'COLO 205 colon', 'inactive'),
  ('COc1ccc(CC(NC(=O)[C@H](C)NC(=O)CN2CCOCC2)C(=O)N[C@@H](Cc2ccccc2)C(=O)[C@@]2(C)CO2)cc1 (some centres undefined)', 'COLO 205 colon', 'active');

// switching to the query compound
Short answer needed: outcome of this test for COc1cc(C2=NN(c3ccc(S(N)(=O)=O)cc3)C(c3ccc(Cl)cc3)C2)cc(OC)c1OC (centres undefined) ?
inactive

====

# Tested on: SNB-75 CNS
# METHOD_SUMMARY: NCI tumour cell line growth inhibition, 48 h
Kindly supply the reported TGI values for the records listed here.

Example compounds with recorded TGI:
INSERT INTO assay_data (compound, target_system, result) VALUES
  ('CCOC(=O)CCC(NC(=O)c1ccc(Nc2cnc3ccc(C(F)(F)F)cc3n2)cc1)C(=O)OCC (configuration not stated)', 'SNB-75 CNS', '29.9 µM'),
  ('CCCCCCC#CC#Cc1cccc(=O)o1', 'SNB-75 CNS', '37.3 µM'),
  ('Nc1ccc2ccc(NS(=O)(=O)N3CCCCC3)cc2c1', 'SNB-75 CNS', '> 100 µM'),
  ('C/C1=C\C/C=C(\C)[C@H]2CC(CC/C(C)=C/CC1)[C@](C)(C=O)O2', 'SNB-75 CNS', '> 100 µM'),
  ('Cc1cnoc1NS(=O)(=O)c1ccc(Nc2nnc(/C=C/c3c(O)ccc4ccccc34)c(=O)n2N)cc1', 'SNB-75 CNS', '77 µM'),
  ('O=C(NNS(=O)(=O)c1ccc(F)cc1)c1cccnc1Nc1ccc(Cl)cc1Cl', 'SNB-75 CNS', '> 100 µM'),
  ('COC1C(O)C(C)OC(OC2CC3CCC4C(CCC5(C)C(C6=CC(=O)OC6)CCC45O)C3(O)C(OC(C)=O)C2)C1O (configuration not stated)', 'SNB-75 CNS', '> 31.2 µM'),
  ('COC(CN(C=O)[C@@H](c1ccc(Cl)cc1)c1cc2ccccc2o1)OC', 'SNB-75 CNS', '42.7 µM'),
  ('CCCCCCCCCCCCCCCC(=O)OC(COC(C)=O)CO[P+](=O)O (configuration not stated)', 'SNB-75 CNS', '94 µM'),
  ('CNC(=O)CNC(=O)C(Cc1ccc(NC(=O)CCCCC(C)=O)cc1)NC(=O)C(CCC(=O)OCc1ccccc1)NC(=O)OC(C)(C)C (configuration not stated)', 'SNB-75 CNS', '> 100 µM');

Hi! Can you tell me TGI for each of these compounds?
1. CCCCCC(O)(CCCCC)CCCCCCCCC1=C(O)c2[nH]c(=O)ccc2C(=O)C1=O
2. COC(=O)C1ON2C(C1C(=O)OC)C(C)(C)N(O)C2(C)C (configuration not stated)

1: 32.3 µM; 2: > 10 µM

====

# Tested on: HCT-116 colon
# METHOD_SUMMARY: NCI tumour cell line growth inhibition, 48 h
Record form. Attribute: GI50. Fill in for each entry.

INSERT INTO measurements (molecule, readout, result) VALUES
  ('CO[C@@]12C[C@H]3[C@@H]([C@@H](O)[C@@H](OC(=O)/C=C/c4ccccc4)[C@@]4(O)C(C)(C)CCC[C@]34C)[C@@H](C)C1=CC(=O)O2', 'GI50', '8.8 µM'),
  ('C/C1=C/C(=O)O[C@@H]2C[C@@H](CC[C@H](C)/C=C\C=C\CC1)O[C@@](OCCc1ccccc1)([C@@H]1CSC(=O)N1)C2', 'GI50', '0.225 µM'),
  ('C(=C\c1nccc2c1[nH]c1ccccc12)/c1ccccc1', 'GI50', '2.71 µM');

Give me GI50 for each of these molecules, listed below.
1. C=CCC(N[C@H](CO)c1ccccc1)c1cn(S(=O)(=O)c2ccc(C)cc2)c2ccccc12 (some centres not stated)
2. COc1ccc(/C=C/C(=O)c2cc3c(N)c(C(=O)Nc4ccccc4C)sc3nc2C)cc1
3. O=C(Nc1ccccc1O)c1ccc(CNC(=O)c2sccc2Nc2ccnc(C(F)(F)F)c2)cc1
4. O=[N+]([O-])[O-].O=[N+]([O-])[O-].[Au].[Au].c1ccc([P-]c2ccccc2)cc1.c1ccc([P-]c2ccccc2)cc1

1: 17 µM; 2: 0.53 µM; 3: 4.61 µM; 4: 44.2 µM

====

# Tested on: SN12C renal
# METHOD_SUMMARY: NCI tumour cell line growth inhibition, 48 h
READOUT: TGI (µM)
Answers are plain numbers, in µM.

// below: answered compounds
INSERT INTO assay_data (compound, readout, numeric_result) VALUES
  ('CC(=O)Oc1cc(C)c(OC(C)=O)c2c1[C@H]1CC[C@]3(C)[C@@H](OC(C)=O)CC[C@H]3[C@@H]1CC2', 'TGI', 33.2),
  ('O=[N+]([O-])/C=C\c1c[nH]c2ccc(OCc3ccccc3)cc12', 'TGI', 10),
  ('COc1ccc(C(=O)COc2cccc(/C=C3\CSc4ccc(Cl)cc4C3=O)c2)cc1', 'TGI', 25.7),
  ('CCCCCCCCCCCCCC(=O)C(C)N (stereo not given)', 'TGI', 13.3),
  ('CN1CCN(c2ccc(NC3=C(Cl)C(=O)c4ncccc4C3=O)cc2C#N)CC1', 'TGI', 3.25);

// next item, TGI requested
Recall the reported TGI of O=C1CC(c2ccc(Cl)cc2)C2(C(=O)NC(=O)NC2=O)C(c2ccc(Cl)cc2)C1 (stereo not given) when tested on SN12C renal.
54

====

So I've got a bunch of compounds here, and I need their TGI values.
# Tested on: SNB-75 CNS
# METHOD_SUMMARY: NCI tumour cell line growth inhibition, 48 h

Some solved entries appear below for comparison.
INSERT INTO assay_data (compound, target_system, result) VALUES
  ('O=S(=O)(NC1OCCCC1I)c1ccccc1 (stereo not drawn)', 'SNB-75 CNS', '> 100 µM'),
  ('COC(=O)c1nc(-c2nc(CCNC(=O)OC(C)(C)C)sc2Cl)sc1Cl', 'SNB-75 CNS', '> 100 µM');

Determine its reported TGI: COc1ccc([C@]23CCN(S(=O)(=O)c4ccc(C)cc4)[C@H]2[C@H](CO)C2(CC3)OCC(C)(C)CO2)cc1OC
> 100 µM

====

Consider the following molecules; for each one, report its TGI.
# Tested on: HOP-62 NSCLC
# METHOD_SUMMARY: NCI tumour cell line growth inhibition, 48 h

INSERT INTO measurements (input_smiles, result) VALUES
  ('Cn1nc2ccc3nccc(N(CCO)CCO)c3c2n1', '> 100 µM'),
  ('Cn1c(=O)cc(NCCc2ccccc2)[nH]c1=O', '> 100 µM');

Proceed to the following item.
Indicate its recorded TGI; the molecule in question is Cc1cccc(C)c1NC(=O)CCC(=O)NC(N)=S
> 100 µM

====

# System: OVCAR-4 ovarian
# METHOD_SUMMARY: NCI tumour cell line growth inhibition, 48 h
READOUT: TGI

INSERT INTO results (molecule, readout, result) VALUES
  ('C/C(N=Nc1nc2ccccc2[nH]1)=C1/C=CC=CN1O', 'TGI', '> 100 µM'),
  ('O=C(NNS(=O)(=O)c1ccc(F)cc1)c1cccnc1Nc1ccc(Cl)cc1Cl', 'TGI', '> 100 µM'),
  ('Cc1c2n(c3ccccc13)CC1CON(C)C21 (stereo unspecified)', 'TGI', '> 100 µM');

Could you tell me TGI for each of these molecules? They are listed below.
1. O=C1CC(c2ccc(Cl)cc2)C2(C(=O)NC(=O)NC2=O)C(c2ccc(Cl)cc2)C1 (stereo unspecified)
2. O=c1[nH]c(Nc2ccc(Cl)cc2)nc2nc[nH]c12
3. O=S(=O)(O)/C(=C\c1ccccc1)c1ccccc1 (tested in a mixture with another compound)
4. COc1ccc(C2c3cc4c(cc3OC(O)(CO)C2C(=O)O)OCO4)cc1 (stereo unspecified) (tested in a mixture with another compound)
5. Cc1nc2ncn3c(c-2c1Cc1ccccc1)NC=C(O)N3

["> 75 µM", "> 100 µM", "> 100 µM", "> 100 µM", "> 100 µM"]
